meta.source: ChEMBL document CHEMBL2010741

# Experiment: AUC (infinity) in rat at 5 mg/kg, po
# Assay type: ADME, organism-based
# Design: time infinity, dose 5 mg/kg, route oral
# Condition summary: plasma
A collection of molecules and their measured AUC(0-inf)
Quantity measured: AUC(0-inf) (ng·h/mL)

>>> numeric_readout("CC(C)C(=O)N1CCC(Oc2ccc3c(c2)CCC2(CCN(C4CCC4)CC2)O3)CC1")
410
>>> numeric_readout("CS(=O)(=O)N1CCC(Oc2ccc3c(c2)CCC2(CCN(C4CCC4)CC2)O3)CC1")
392
>>> numeric_readout("O=C(C1CC1)N1CCC(Oc2ccc3c(c2)CCC2(CCN(C4CCC4)CC2)O3)CC1")
359
>>> numeric_readout("O=S(=O)(C1CC1)N1CCC(Oc2ccc3c(c2)CCC2(CCN(C4CCC4)CC2)O3)CC1")
435
